property label: melting point

1. COc1cccc(CONC(=O)/C=C/c2ccc(O)c(OC)c2)c1 [Compound 1b]
63 to 65 °C
2. COc1cc(/C=C/C(=O)NOCc2ccc(Cl)cc2Cl)ccc1O [Compound 1e]
164.3 to 166.5 °C
3. COc1cc(/C=C/C(=O)NOCc2cccc(Cl)c2)ccc1O [Compound 1d]
47 to 48 °C
4. COc1cc(/C=C/C(=O)NOCc2ccccc2C(F)(F)F)ccc1O [Compound 1c]
76 to 77 °C
5. COc1cc(/C=C/C(=O)NOCc2ccccc2OC)ccc1O [Compound 1a]
58 °C

----------
- measured target: Aβ1–42 peptide (Homo sapiens, UniProt P05067)
- Sequence (P05067 672-713): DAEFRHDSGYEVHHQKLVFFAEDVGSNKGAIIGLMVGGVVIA
- measurement protocol: Inhibition of self-mediated Aβ1–42 aggregation, Thioflavin T fluorescence assay
- Format: biochemical
- Set-up: Amyloid-β peptide (1–42) was purchased from GeneCust; purchased GeneCust
- test conditions: compounds 80 μM, without copper; ThT fluorescence; mean of two independent measurements in duplicate; read-out: Inhibition of Aβ1–42 Aggregation (%) Self-Aβ Aggr.
# label = y if inhibition at 80 µM >= 30% else n

1. COc1cc(/C=C/C(=O)NOCc2cccc(Cl)c2)ccc1O
y
2. COc1cccc(CONC(=O)/C=C/c2ccc(O)c(OC)c2)c1
y
3. COc1cc(/C=C/C(=O)NOCc2ccccc2C(F)(F)F)ccc1O
y
4. COc1cc(/C=C/C(=O)NOCc2ccccc2OC)ccc1O
y
5. COc1cc(/C=C/C(=O)NOCc2ccc(Cl)cc2Cl)ccc1O
n
